# test: Inhibition of soybean 15-lipoxygenase using linoleic acid as substrate incubated for 5 mins prior to substrate addition measured after 7 mins by DMAB-MBTH method
# Design: species or system Glycine max
property measured: IC50 (µM)
One number for each entry, in µM.

Hi there! I need IC50 for each item below, if you can.
1. C=CCOc1ccc(NC(=O)C2CC2)cc1CC=C
2. Cc1nc(N2CCN(C)CC2)nc2c1Nc1ccccc1S2
3. C=CCOc1ccc(NC(=O)C2CCCC2)cc1CC=C
4. C=CCc1cc(NC(=O)C23CC4CC(CC(C4)C2)C3)ccc1OC/C=C(\C)CCC=C(C)C
5. C=CCc1cc(NC(=O)C23CC4CC(CC(C4)C2)C3)ccc1OC/C=C(\C)CC/C=C(\C)CCC=C(C)C
6. O=C(O)/C=C/c1ccc(O)c(O)c1

1: 54.1; 2: 28.2; 3: 58; 4: 3.6; 5: 0.69; 6: 37.1

I have 2 compounds here; please give me IC50 for each one.
1. C=CCc1cc(NC(=O)C2CCC2)ccc1OC/C=C(\C)CC/C=C(\C)CCC=C(C)C
2. C=CCc1cc(NC(=O)C23CC4CC(CC(C4)C2)C3)ccc1OCC=C(C)C

2.1
10.3

For each entry beneath this line, provide reported IC50.
1. C=CCOc1ccc(NC(=O)C2CCCCC2)cc1CC=C
2. C=CCc1cc(NC(=O)C2CCCCC2)ccc1OC/C=C(\C)CC/C=C(\C)CCC=C(C)C
3. C=CCOc1ccc(NC(=O)C2CCC2)cc1CC=C
4. C=CCOc1ccc(NC(C)=O)cc1CC=C

1: 18.5; 2: 5.2; 3: 19.6; 4: 67.8

Give me IC50 for each of these compounds, listed below.
1. C=CCc1cc(NC(=O)C2CC2)ccc1OC/C=C(\C)CC/C=C(\C)CCC=C(C)C
2. C=CCOc1ccc(NC(=O)C23CC4CC(CC(C4)C2)C3)cc1
3. C=CCc1cc(NC(C)=O)ccc1OC/C=C(\C)CC/C=C(\C)CCC=C(C)C
4. C=CCc1cc(NC(=O)C2CCCC2)ccc1OC/C=C(\C)CC/C=C(\C)CCC=C(C)C

16.5
27.8
24.8
35.7

Give me measured IC50, please, for this compound: "C=CCOc1ccc(NC(=O)C23CC4CC(CC(C4)C2)C3)cc1CC=C"
9.8

---

# Tested on: Radical scavenging activity
# test: Antioxidant activity assessed as inhibition of DPPH radical scavenging activity after 30 mins by spectrophotometry
# Format: functional
Can you tell me log10 IC50 for the items I'm about to list?
Give log10 of IC50, with IC50 taken in µM.

// for each molecule in input: emit log10 IC50
1. C=CCc1cc(NC(=O)C23CC4CC(CC(C4)C2)C3)ccc1OCC=C(C)C
2. C=CCc1cc(NC(=O)C2CCCC2)ccc1OC/C=C(\C)CC/C=C(\C)CCC=C(C)C
3. C=CCc1cc(NC(=O)C23CC4CC(CC(C4)C2)C3)ccc1OC/C=C(\C)CC/C=C(\C)CCC=C(C)C
4. CC(Cc1ccc(O)c(O)c1)C(C)Cc1ccc(O)c(O)c1 (centres undefined) [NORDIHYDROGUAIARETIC ACID]
5. C=CCc1cc(NC(=O)C2CCC2)ccc1OC/C=C(\C)CC/C=C(\C)CCC=C(C)C
6. C=CCc1cc(NC(=O)C2CC2)ccc1OC/C=C(\C)CC/C=C(\C)CCC=C(C)C
7. C=CCc1cc(NC(=O)C23CC4CC(CC(C4)C2)C3)ccc1OC/C=C(\C)CCC=C(C)C

1: 2.02; 2: 2.66; 3: 2.06; 4: 0.79; 5: 2.15; 6: 0.95; 7: 2.08

Would you mind listing log10 IC50 for each of the following molecules?
1. C=CCc1cc(NC(C)=O)ccc1OC/C=C(\C)CC/C=C(\C)CCC=C(C)C
2. C=CCc1cc(NC(=O)C2CCCCC2)ccc1OC/C=C(\C)CC/C=C(\C)CCC=C(C)C

1: 2.35; 2: 2.72
